Assign TGI to each entry below.
Test system: SK-MEL-2 melanoma
Method Notes: NCI tumour cell line growth inhibition, 48 h
All answers are understood in µM, so give the number only.

Lookup: Endpoint output: TGI of `C[C@@H]1S[C@H](c2c(F)cccc2Cl)n2c1nc1ccccc12` . Value?
Found: 29.3

Lookup: Similarly, COC(=O)C1C(C(=O)O)C2(c3ccccc3)C(=O)C1(c1ccccc1)C(c1ccccc1)=C2c1ccccc1 (centres undefined) ?
Found: 34.1

Lookup: Similarly, Cc1nc2sc(C(=O)Nc3cccc(Br)c3C)c(N)c2cc1C(O)c1ccccc1 (centres undefined) ?
Found: 15.7

Lookup: Similarly, `Brc1ccccc2cc(-c3ccccc3)nc1-2` ?
Found: 18.6

---

Test system: SF-295 CNS
Method Notes: NCI tumour cell line growth inhibition, 48 h
Assign TGI to each entry below.

Lookup: Endpoint output: TGI of `Nc1cccc2c1-c1c(cccc1[N+](=O)[O-])C2=O` . Value?
Found: > 100 µM

Lookup: Similarly, `C=C1C(=O)O[C@H]2[C@H]1CC/C(COC(=O)c1cccnc1N)=C\CC[C@@]1(C)O[C@@H]21` ?
Found: 16 µM

Lookup: Similarly, `NS(=O)(=O)c1nnc(NS(=O)(=O)c2ccccc2[N+](=O)[O-])s1` ?
Found: > 100 µM

Lookup: Similarly, `CN1CCN(c2cc3nc(-c4ccc(Cl)cc4)[nH]c3cc2F)CC1` ?
Found: 28.8 µM

Lookup: Similarly, `C/C(=C\COP(=O)(O)OP(=O)(O)O)CCCCCCOCc1ccccc1` ?
Found: > 100 µM

Lookup: Similarly, `O=C(Oc1ccccc1)N(c1ccccc1)c1ccccc1` ?
Found: 58.7 µM

Lookup: Similarly, `CC1(C)OCC(CO)(CO)CO1` ?
Found: > 100 µM

Lookup: Similarly, O=C(O)CCC(NC(=O)c1ccc(Nc2cnc3cc(C(F)(F)F)ccc3n2)cc1)C(=O)O (stereo unspecified) ?
Found: > 100 µM

Lookup: Similarly, `CCOC(=O)c1ncn(CCc2ccc(Cl)cc2)c1C` ?
Found: > 100 µM

Lookup: Similarly, `C[P+]1(Cc2ccccc2)CCCC1` ?
Found: > 100 µM

Lookup: Similarly, `CN(C)NC(=O)/C(=C/c1ccc(Cl)cc1)NC(=O)c1ccccc1` ?
Found: > 100 µM

---

Assign TGI to each entry below.
Test system: COLO 205 colon
Method Notes: NCI tumour cell line growth inhibition, 48 h
All answers are understood in µM, so give the number only.

Lookup: Endpoint output: TGI of `C=CCn1c2ccccc2c2c3c(c4c5ccccc5n(CC=C)c4c21)C(=O)N(O)C3=O` . Value?
Found: 9.31

Lookup: Similarly, COc1cc2c(cc1OC)C(C(CCCCCC(CCC(C)C)C1NCCc3cc(OC)c(OC)cc31)CCC(C)C)NCC2 (stereo not given) ?
Found: 0.464

Lookup: Similarly, CCOC(=O)C1=C(OC(OCC)C([Se]c2ccccc2)C(C)C)CCC1 (stereo not given) ?
Found: 31.7

Lookup: Similarly, `COC(=O)/C=C/CCC#Cc1ccccc1C#CCC/C=C/C(=O)OC` ?
Found: 42.3

Lookup: Similarly, `Cc1cc(N2CCOCC2)nc2ccc(Cc3ccc4nc(N5CCOCC5)cc(C)c4c3)cc12` ?
Found: 26.8

Lookup: Similarly, `CN(C)c1ccc(C=Nc2ccc(-c3nc4ccccc4s3)cc2)cc1` ?
Found: 62.3

From: PubChem BioAssay (NCI)
